# Tested on: osteoclast fusion
# test-details: Fusion assay of prefusion osteoclasts (Example 2)
# Type: cell-based, mice
# stated-conditions: Mus musculus, Osteoclast; 0.08 uM; 24 hrs; read-out: Inhibitory action (%)
reported-metric: inhibition at 0.08 µM (%)
Reply with just the number (in %).

Guide cases for inhibition at 0.08 µM, answers given:
[[record]]
substance_smiles = "Cc1nc(-c2ccc(OCCCCCOc3ccc(C(=N)NO)cc3)cc2)c(C(C)C)s1"
value_unit = "%"
numeric_readout = 4.5

[[record]]
substance_smiles = "Cc1nc(-c2ccc(OCCCCOc3ccc(C(=N)N)cc3)cc2)c(C(C)C)s1"
value_unit = "%"
numeric_readout = 0

[[record]]
substance_smiles = "Cc1nc(-c2ccc(OCCCCCOc3ccc(C(=N)N)cc3)cc2)c(C(C)C)s1"
value_unit = "%"
numeric_readout = 5.13

[[record]]
substance_smiles = "COc1cc(C(=O)N(C(C)C)C(C)C)ccc1OCCCCOc1ccc2c(N)noc2c1"
value_unit = "%"
numeric_readout = 2.1


API: the following record is the query input.
Data point: Cc1nc(-c2ccc(OCCCCOc3ccc(C(=N)NO)cc3)cc2)c(C(C)C)s1 ; inhibition at 0.08 µM = 0

---

Reported inhibition at 0.1 µM values for a set of molecules
# System: osteoclast activity (resorption pits)
# test-details: Bone resorption pit formation assay on dentine slice (Example 5)
# Type: cell-based, mice
# stated-conditions: Mus musculus, Osteoclast; 0.1 uM; dentine slice, 24 h; read-out: Inhibitory activity (%)
Reply with just the number (in %).

Guide cases for inhibition at 0.1 µM, answers given:
[[record]]
molecule = "Cc1nc(-c2ccc(OCCCCOc3ccc(C(=N)NO)cc3)cc2)c(C(C)C)s1 [DW1349]"
tested_target = "osteoclast activity (resorption pits)"
value_unit = "%"
numeric_readout = 36.1

[[record]]
molecule = "Cc1nc(-c2ccc(OCCCCCOc3ccc(C(=N)NO)cc3)cc2)c(C(C)C)s1 [DW1350]"
tested_target = "osteoclast activity (resorption pits)"
value_unit = "%"
numeric_readout = 52.6

[[record]]
molecule = "Cc1nc(-c2ccc(OCCCCOc3ccc(C(=N)N)cc3)cc2)c(C(C)C)s1 [DW1351]"
tested_target = "osteoclast activity (resorption pits)"
value_unit = "%"
numeric_readout = 26.7

[[record]]
molecule = "COc1cc(C(=O)N(C(C)C)C(C)C)ccc1OCCCCOc1ccc2c(N)noc2c1 [HS1141]"
tested_target = "osteoclast activity (resorption pits)"
value_unit = "%"
numeric_readout = 22.7


API: the following record is the query input.
Data point: Cc1nc(-c2ccc(OCCCCCOc3ccc(C(=N)N)cc3)cc2)c(C(C)C)s1 [DW1352] ; inhibition at 0.1 µM = 36

---

# System: osteoclast fusion
# test-details: Fusion assay of prefusion osteoclasts (Example 2)
# Type: cell-based, mice
# stated-conditions: Mus musculus, Osteoclast; 0.4 uM; 24 hrs; read-out: Inhibitory action (%)
Assign TRUE to entries whose inhibition at 0.4 µM meets or exceeds 20%; assign FALSE to the rest.

Below, 2 compounds whose answers are already recorded.
[[record]]
substance_smiles = "Cc1nc(-c2ccc(OCCCCOc3ccc(C(=N)N)cc3)cc2)c(C(C)C)s1"
label = "FALSE"

[[record]]
substance_smiles = "Cc1nc(-c2ccc(OCCCCCOc3ccc(C(=N)N)cc3)cc2)c(C(C)C)s1"
label = "TRUE"


[Q] Does Cc1nc(-c2ccc(OCCCCOc3ccc(C(=N)NO)cc3)cc2)c(C(C)C)s1 have a reported inhibition at 0.4 µM of at least 20%?
[A] FALSE

[Q] Does COc1cc(C(=O)N(C(C)C)C(C)C)ccc1OCCCCOc1ccc2c(N)noc2c1 have a reported inhibition at 0.4 µM of at least 20%?
[A] FALSE

[Q] Does Cc1nc(-c2ccc(OCCCCCOc3ccc(C(=N)NO)cc3)cc2)c(C(C)C)s1 have a reported inhibition at 0.4 µM of at least 20%?
[A] TRUE

---

# System: osteoclast differentiation
# test-details: Inhibitory effects on osteoclast differentiation, co-culture of bone marrow cells and osteoblast, TRAP staining (Example 1)
# Format: cell-based, mice
# stated-conditions: Mus musculus, Osteoclast, 168 h; 7-day co-culture
Reported IC50 values for a set of molecules
I'd appreciate it if you wrote the number followed by its unit.

[[record]]
substance_smiles = "Cc1nc(-c2ccc(OCCCCCOc3ccc(C(=N)N)cc3)cc2)c(C(C)C)s1"
tested_target = "osteoclast differentiation"
result = "0.00125 µM"


API: the following record is the query input.
Data point: Cc1nc(-c2ccc(OCCCCCOc3ccc(C(=N)NO)cc3)cc2)c(C(C)C)s1 ; IC50 = 0.0199 µM

---

# Test system: Primary osteoblastic cells
# test-details: ALP activity in primary osteoblastic cells (Example 5)
# Assay type: cell-based, ICR mice
# stated-conditions: 0.01 uM; 3 days
Reported ALP activity (% of control) values for a set of compounds

Guide cases for ALP activity (% of control), answers given:
[[record]]
compound = "Cc1nc(-c2ccc(OCCCCCOc3ccc(C(=N)N)cc3)cc2)c(C(C)C)s1 [DW1352]"
reported_metric = "ALP activity (% of control)"
result = "113.0 % of control"

[[record]]
compound = "Cc1nc(-c2ccc(OCCCCOc3ccc(C(=N)N)cc3)cc2)c(C(C)C)s1 [DW1351]"
reported_metric = "ALP activity (% of control)"
result = "122.5 % of control"

[[record]]
compound = "COc1cc(C(=O)N(C(C)C)C(C)C)ccc1OCCCCOc1ccc2c(N)noc2c1 [HS1141]"
reported_metric = "ALP activity (% of control)"
result = "117.3 % of control"

[[record]]
compound = "Cc1nc(-c2ccc(OCCCCOc3ccc(C(=N)NO)cc3)cc2)c(C(C)C)s1 [DW1349]"
reported_metric = "ALP activity (% of control)"
result = "113.2 % of control"


API: the following record is the query input.
Data point: Cc1nc(-c2ccc(OCCCCCOc3ccc(C(=N)NO)cc3)cc2)c(C(C)C)s1 [DW1350] ; ALP activity (% of control) = 141.9 % of control

---

# System: osteoclast fusion
# test-details: Fusion assay of prefusion osteoclasts (Example 2)
# Type: cell-based, mice
# stated-conditions: Mus musculus, Osteoclast; 10 uM; 24 hrs; read-out: Inhibitory action (%)
reported-metric: inhibition at 10 µM (%)
Reply with just the number (in %).

Guide cases for inhibition at 10 µM, answers given:
[[record]]
substance_smiles = "COc1cc(C(=O)N(C(C)C)C(C)C)ccc1OCCCCOc1ccc2c(N)noc2c1"
reported_metric = "inhibition at 10 µM"
numeric_readout = 36.3

[[record]]
substance_smiles = "Cc1nc(-c2ccc(OCCCCOc3ccc(C(=N)NO)cc3)cc2)c(C(C)C)s1"
reported_metric = "inhibition at 10 µM"
numeric_readout = 18

[[record]]
substance_smiles = "Cc1nc(-c2ccc(OCCCCCOc3ccc(C(=N)NO)cc3)cc2)c(C(C)C)s1"
reported_metric = "inhibition at 10 µM"
numeric_readout = 98

[[record]]
substance_smiles = "Cc1nc(-c2ccc(OCCCCOc3ccc(C(=N)N)cc3)cc2)c(C(C)C)s1"
reported_metric = "inhibition at 10 µM"
numeric_readout = 74


API: the following record is the query input.
Data point: Cc1nc(-c2ccc(OCCCCCOc3ccc(C(=N)N)cc3)cc2)c(C(C)C)s1 ; inhibition at 10 µM = 99

Where these numbers come from: patent US8242152B2
